# Test system: Type III allergic reaction-induced pleurisy
# method: Effect on Type III allergic reaction-induced pleurisy
# Format: in vivo, male Wistar rats
# measurement_parameters: po, 4.5 h; rat, 100 mg/kg p.o.; four and a half hours after induction of pleurisy; read-out: Suppression rate, volume of exudate
measurement_kind: inhibition in vivo at 100 mg/kg (%)
Give bare numbers, in %.

Field: example entries. Status: answers known.
COc1cccc(NC(=O)c2c(O)c3cccnc3n(-c3ccccc3)c2=O)c1 [Compound 18]    26.9
CNC(=O)c1c(O)c2cccnc2n(-c2ccccc2)c1=O [Compound 2]    27.2
O=C(Nc1cnccn1)c1c(O)c2cccnc2n(-c2ccccc2)c1=O [Compound 23]    24
O=C(Nc1nc2ccccc2s1)c1c(O)c2cccnc2n(-c2ccccc2)c1=O [Compound 13]    28.9
O=C(Nc1cccc([N+](=O)[O-])c1)c1c(O)c2cccnc2n(-c2ccccc2)c1=O [Compound 11]    22.1

Batch lookup, inhibition in vivo at 100 mg/kg per entry.
1. Cc1cccc(NC(=O)c2c(O)c3cccnc3n(-c3ccccc3)c2=O)c1 [Compound 9]
2. Cc1ccc(NC(=O)c2c(O)c3cccnc3n(-c3ccccc3)c2=O)cc1 [Compound 17]
3. O=C(Nc1cccnc1)c1c(O)c2cccnc2n(-c2ccccc2)c1=O [Compound 4]
4. O=C(NC1=NCCS1)c1c(O)c2cccnc2n(-c2ccccc2)c1=O [Compound 22]
5. O=C(NC1CCN(Cc2ccccc2)CC1)c1c(O)c2cccnc2n(-c2ccccc2)c1=O [Compound 21]
6. O=C(Nc1ccncc1)c1c(O)c2cccnc2n(-c2ccccc2)c1=O [Compound 5]
7. CCc1nnc(NC(=O)c2c(O)c3cccnc3n(-c3ccccc3)c2=O)s1 [Compound 24]

[A]
1. 27.3
2. 22.4
3. 75.3
4. 89.2
5. 32.4
6. 100
7. 29.7
